assay: gradient 5% acetonitrile 3 min, to 50% in 2 min, to 85% in 15 min, held 3 min, 100 µL/min; conditions: column: Zorbax Extend-C18 2.1 x 50 mm; eluents: water / acetonitrile, 0.1% formic acid
OBSERVED PROPERTY: RP-LC retention time (s)

a: Cc1ccc(Cn2c(=O)n(CCNC(=O)C3CC3)c3ncccc32)cc1
b: COc1ccc(NC(=O)C2CCCN(c3nccnc3Sc3ccccc3)C2)cc1Cl (stereo not given)
Which has the higher RP-LC retention time, a or b ? I would appreciate it if you answered with the label of your choice. b

I: COc1cc2c(Nc3ccc(NC(=O)c4ccccc4)cc3)ncnc2cc1OCCCN1CCOCC1
II: O=C(Cn1nc2c(Oc3ccc(Cl)cc3)nccn2c1=O)Nc1ccc(F)c(Cl)c1
Select one. Lower RP-LC retention time: I or II State your choice using its label. I
(I: 627 s, II: 990 s)
